- System: DU-145 prostate
- ASSAY INFO: NCI-60 one-dose screen, 48 h (100 = growth as untreated, 0 = no growth, -100 = all killed)
- PARTICULARS: 10 µM unless noted
This is part of a sample that, as a whole, favours compounds with a hit. Of some 83,000 tested, about 20% had one in any assay. Calls of active or inactive are those of the source. How the source made its calls: active means growth percent below 10; inactive means the rest.
PROPERTY: growth

Recorded results for 7 compounds are shown here.
- CCCc1cc2cc(-n3nc(C)c4c3CC(C)(C)CC4=O)cc(NC3CCC(O)CC3)c2c(=O)[nH]1 (stereo not drawn): 38.8% (inactive)
- [2H]C1([2H])[C@H](C)O[C@H](C)C([2H])([2H])N1c1ccc(NC(=O)c2cccc(-c3ccc(OC(F)(F)F)cc3)c2C)cn1: 80.1% (inactive)
- Cn1cnc2c(F)c(Nc3ccc(Br)cc3F)c(C(=O)NOCCO)cc21: 64.2% (inactive)
- OCCNC(=S)Nc1ccc(-c2nc(N3C[C@H]4CC[C@@H](C3)O4)c3cccn3n2)cc1: 8.77% (active)
- COc1ccc(-c2cc3c(oc2=O)-c2ccccc2OC3OC(C)=O)cc1 (stereo not drawn): 107% (inactive)
- Cc1cn(-c2cc(NC(=O)c3ccc(C)c(Nc4nccc(-c5cnccn5)n4)c3)cc(C(F)(F)F)c2)cn1: 82.2% (inactive)
- C=C1C(=O)O[C@H]2[C@H]1CC/C(C=Nc1c(N)cc(C(F)(F)F)cc1C(F)(F)F)=C\CC[C@@]1(C)O[C@@H]21: 5.82% (active)

Read the next record carefully.
Inquiry: Value lookup for growth; key = `CN(c1ncccc1CNc1nc(Nc2ccc3c(c2)CC(=O)N3)ncc1C(F)(F)F)S(C)(=O)=O`
Reply text: 11.2% (inactive)
